target: cruzain (Trypanosoma cruzi); assay: biochemical; conditions: 10’ (pre-incubation time); sheet "Screening results"
PROPERTY MEASURED: Cruzain 10’ Inhibition (%)
API: value field is a number in %; no unit string.

Endpoint output: Cruzain 10’ Inhibition of CC1=Nc2ccc(Cl)cc2C(c2ccccc2)N1CCNC(=O)CN(C)C (stereo not drawn) [MMV688410] . Value?
3.8

Which Cruzain 10’ Inhibition is reported for this compound? O=C(Nc1ccc(C(F)(F)F)c(C(F)(F)F)c1)c1cc(Cl)ccc1O [MMV687807]
6

Requested read-out: Cruzain 10’ Inhibition. Entry: Cc1ccc2[nH]c(C3CCCNC3)c(-c3ccncc3)c2c1 (stereo not drawn) [MMV024311]
15

Consider the compound shown here: COc1ccc2nc(C)cc(OCC(=O)Nc3ccccc3OC)c2c1 [MMV687188] What is its recorded Cruzain 10’ Inhibition?
4.7

Quick one: Cruzain 10’ Inhibition of COc1ccc(CCN2CCC(NCc3cccc(N(C)C)c3)CC2)cc1 [MMV011511] ?
3.6

State the recorded Cruzain 10’ Inhibition for this entry: CCOC(=O)c1c(NC(=O)c2c(F)c(F)c(F)c(F)c2F)sc(C(N)=O)c1C [MMV153413]
23

Please report the recorded Cruzain 10’ Inhibition for COc1ccc(-c2cnc3ccc(N4CCCC4)nn23)cc1OC [MMV023985] .
-13

# lookup: Cruzain 10’ Inhibition of Nc1ccc(C(=O)Nc2ccc(-c3nc4ccccc4o3)cc2)cc1 [MMV007920]
11

So what's the measured Cruzain 10’ Inhibition for this one? Cc1nn(C)c(C)c1NS(=O)(=O)c1c(Cl)cc(-c2ccnc(N3CCNCC3)c2)cc1Cl [MMV688180]
10

Reported Cruzain 10’ Inhibition for c1cncc(NCc2ccc(-c3cc4ccncc4cc3OC3CCNCC3)s2)c1 [MMV023969] : what is it?
31

# Cruzain 10’ Inhibition lookup, item c1ccc(Oc2ccc(-c3cc(N4CCNCC4)[nH]n3)cc2)cc1 [MMV687706]
4

Record request: Cruzain 10’ Inhibition value, item CC(C)(C)n1nc(Cc2cccc3ccccc23)c2c(N)ncnc21 [MMV676599]
11

###

target: cruzain (Trypanosoma cruzi, UniProt P25779); assay: biochemical; conditions: 0’ (pre-incubation time); sheet "Screening results"
Sequence (P25779 123-337 limits assumed): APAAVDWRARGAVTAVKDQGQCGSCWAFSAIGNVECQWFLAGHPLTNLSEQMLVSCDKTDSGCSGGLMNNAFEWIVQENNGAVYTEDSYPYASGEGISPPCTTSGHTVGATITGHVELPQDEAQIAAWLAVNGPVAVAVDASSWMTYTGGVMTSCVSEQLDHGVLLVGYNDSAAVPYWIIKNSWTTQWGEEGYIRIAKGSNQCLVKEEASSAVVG
Assignment: determine reported Cruzain 0’ Inhibition for the given compounds.
Provide only the numeric value, understood in %.

Form entry - test system: cruzain (Trypanosoma cruzi, UniProt P25779); read-out: Cruzain 0’ Inhibition; compound: COc1cccc(CC(=O)N2CCC(n3c(C)nc4ccc(F)cc43)CC2)c1;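 further: at 5 µM compound concentration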
5

Lookup: Cruzain 0’ Inhibition / cruzain (Trypanosoma cruzi, UniProt P25779) / COc1ccc2nc(C)cc(OCC(=O)Nc3ccccc3OC)c2c1
0.8

Value wanted: Cruzain 0’ Inhibition (cruzain (Trypanosoma cruzi, UniProt P25779)) of entry COc1ccc(-c2onc(C(F)(F)F)c2-c2ccc(Cl)cc2)c(O)c1
1

Quick check: Cruzain 0’ Inhibition on cruzain (Trypanosoma cruzi, UniProt P25779), item Nc1nc(N)c2c3c(sc2n1)CN(Cc1ccccc1)CC3 ?
3.6

###

molecular target: TbrCatL (Trypanosoma brucei rhodesiense, UniProt Q95PM0); construct: Conor Caffrey (University of California San Diego); experiment: TbrCatL enzymatic inhibition assay (cleavage of fluorogenic substrate Z-FR-AMC); type: biochemical; conditions: 0’ (pre-incubation time); sheet "Screening results";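 further: at 5 µM compound concentration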
Sequence (Q95PM0 entry or part of it): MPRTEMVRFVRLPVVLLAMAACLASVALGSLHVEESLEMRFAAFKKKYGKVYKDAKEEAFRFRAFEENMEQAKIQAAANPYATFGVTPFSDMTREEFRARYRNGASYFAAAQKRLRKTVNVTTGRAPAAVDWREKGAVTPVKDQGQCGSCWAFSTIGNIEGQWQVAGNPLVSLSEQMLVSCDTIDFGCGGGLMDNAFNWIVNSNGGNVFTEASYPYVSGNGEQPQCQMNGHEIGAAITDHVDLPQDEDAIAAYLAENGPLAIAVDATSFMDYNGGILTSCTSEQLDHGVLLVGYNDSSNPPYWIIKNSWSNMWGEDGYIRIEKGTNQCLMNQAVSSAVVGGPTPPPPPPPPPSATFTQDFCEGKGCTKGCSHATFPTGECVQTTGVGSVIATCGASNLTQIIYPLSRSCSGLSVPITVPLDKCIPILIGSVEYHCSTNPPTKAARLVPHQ
PROPERTY MEASURED: TbrCatL 0’ Inhibition (%)
Give just the number in %; leave the unit off.

Can you look up the measured TbrCatL 0’ Inhibition of COc1cc(C(F)(F)F)nc2ccc(C)c(N)c12 for me?
15

What value of TbrCatL 0’ Inhibition has been recorded for this entry: CC(C)=CCC/C(C)=C\CNCCNC1C2CC3CC(C2)CC1C3 (stereo not drawn)
-3.2

Which TbrCatL 0’ Inhibition value is on record for CNc1cc(C)nc(C2CN(C(=O)c3n[nH]c4ccccc34)CCO2)c1 (stereo not drawn) ?
8

So what's the measured TbrCatL 0’ Inhibition for this one? COc1ccc(-c2cnc3ccc(NCc4ccc(S(N)(=O)=O)cc4)nn23)cn1
-3.2

Given Clc1cccc(C(c2ccc(CN3CCNCC3)cc2)n2ccnc2)c1 (stereo not drawn) , state its recorded TbrCatL 0’ Inhibition.
-13

Tell me the measured TbrCatL 0’ Inhibition of CCCCOC(=O)Nc1cc2[nH]c(C3CCCCC3)nc2cc1N1CCCC1 , please.
19

GET /values?readout=TbrCatL 0’ Inhibition&item= Cc1cc(Nc2ccc(C(F)(F)F)cc2)n2ccnc2n1
-1

# TbrCatL 0’ Inhibition lookup, item NS(=O)(=O)c1cccc(-c2ccc3ncc(N4CCOCC4)nc3c2)c1
-1.3

Which TbrCatL 0’ Inhibition value belongs to c1cncc(NCc2ccc(-c3cc4ccncc4cc3OC3CCNCC3)s2)c1 ?
19

May I ask what TbrCatL 0’ Inhibition has been recorded for CCC(Sc1nc2ccccc2o1)C(=O)Nc1nnc(C)s1 (stereo not drawn) ?
6

Endpoint output: TbrCatL 0’ Inhibition of CCOc1ccccc1C(=O)Nc1cccc(-c2nc3ncccn3c2C)c1 . Value?
8

Name the reported TbrCatL 0’ Inhibition value associated with the molecule CNC(=O)CNc1nc(-c2ccccn2)nc2scc(-c3ccccc3)c12
-10
